The measured values listed here are drawn from patent US12195427B2.

Target: UniProt:O00187
Assay: MASP-2 co-crystallization, X-ray crystallography and structure analysis (H-bonds, van der Waals contacts)
Conditions: Table A6-2 pharmacophore angle
Where a name gives a salt, the structure may show the parent alone.
Kindly supply the reported a(O2, N2, C6) values for the records listed here.
Please give only the number in your answer, with no unit.

Exercise: Reported a(O2, N2, C6), molecule C[C@H](NC(=O)[C@H](N)CCc1cc(Cl)cc(Cl)c1)C(=O)NCc1ccc(C(=N)N)cc1 : ____
Solution: 88.59

Exercise: Reported a(O2, N2, C6), molecule Cc1nc(N)ccc1CNC(=O)[C@H](C)NC(=O)[C@H]1C[C@H](Cc2ccccc2Br)CN1.O=C(O)C(F)(F)F.O=C(O)C(F)(F)F : ____
Solution: 115.79

Exercise: Reported a(O2, N2, C6), molecule Cc1cccc([C@H]2CN[C@@H](C(=O)N[C@@H](C)C(=O)NCc3ccc(N)nc3C)C2)c1 [compound 1257, Dihydrochloride] : ____
Solution: 105.30

Exercise: Reported a(O2, N2, C6), molecule Cc1nc(N)ccc1CNC(=O)[C@H](C)NC(=O)[C@H]1C[C@H](Cc2cc(Cl)cc(Cl)c2)CN1 [compound 1435, Dihydrochloride] : ____
Solution: 99.38

* * *

Kindly supply the reported Ligand-pharmacophore element distance, pharmacophore element CA2 values for the records listed here.
Target: MASP-2 CCP2-SP (Homo sapiens (Human))
Assay: MASP-2 co-crystallization, X-ray crystallography and structure analysis (H-bonds, van der Waals contacts)
Conditions: Table A4-1; element CA2

Exercise: Reported Ligand-pharmacophore element distance, pharmacophore element CA2, compound C[C@H](NC(=O)[C@H]1C[C@@H](c2ccccc2)CN1)C(=O)NCc1ccc2c(N)nccc2c1.Cl.Cl [1089_A] : ____
Solution: 0.89

Exercise: Reported Ligand-pharmacophore element distance, pharmacophore element CA2, compound Cc1nc(N)ccc1CNC(=O)[C@H](C)NC(=O)[C@H]1C[C@H](Cc2ccccc2Br)CN1.O=C(O)C(F)(F)F.O=C(O)C(F)(F)F [1372_A] : ____
Solution: 0.47

Exercise: Reported Ligand-pharmacophore element distance, pharmacophore element CA2, compound C[C@H](NC(=O)[C@H](N)CCc1cccc(Cl)c1)C(=O)NCc1ccc(C(=N)N)cc1 : ____
Solution: 0.76

Exercise: Reported Ligand-pharmacophore element distance, pharmacophore element CA2, compound CC(NC(=O)C1CC(Cc2ccccc2)CN1)C(=O)NCc1cnc2c(c1)c(Cl)cn2C.Cl.Cl (mixture of isomers) [1450_A] : ____
Solution: 0.4

Exercise: Reported Ligand-pharmacophore element distance, pharmacophore element CA2, compound C[C@H](NC(=O)[C@H]1C[C@@H](c2ccccc2)CCN1)C(=O)NCc1cc(Cl)ccc1O.Cl [1078_7] : ____
Solution: 0.55

Exercise: Reported Ligand-pharmacophore element distance, pharmacophore element CA2, compound Cc1nc(N)ccc1CNC(=O)[C@H](C)NC(=O)[C@H]1C[C@H](Cc2ccc3ccccc3c2)CN1 : ____
Solution: 0.59

Exercise: Reported Ligand-pharmacophore element distance, pharmacophore element CA2, compound N=C(N)c1ccc(CNC(=O)[C@@H]2CCN2C(=O)[C@H](NCC(=O)O)C2Cc3ccccc3C2)cc1 : ____
Solution: 0

* * *

Biological target: MASP-2 CCP2-SP (Homo sapiens (Human), UniProt O00187)
Sequence (O00187 445-686): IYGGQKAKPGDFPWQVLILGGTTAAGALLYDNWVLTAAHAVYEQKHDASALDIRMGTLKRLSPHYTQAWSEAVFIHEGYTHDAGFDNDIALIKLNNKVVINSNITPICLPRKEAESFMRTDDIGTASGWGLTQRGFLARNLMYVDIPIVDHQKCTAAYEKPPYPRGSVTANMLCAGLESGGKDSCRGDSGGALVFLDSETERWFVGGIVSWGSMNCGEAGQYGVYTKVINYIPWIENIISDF
Sequence (O00187 364-432 partner): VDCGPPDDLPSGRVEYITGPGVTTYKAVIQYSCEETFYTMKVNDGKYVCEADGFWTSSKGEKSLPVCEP
Assay: MASP-2 co-crystallization, X-ray crystallography and structure analysis (H-bonds, van der Waals contacts)
Conditions: Table A7-1; between pharmacophore elements of the bound compound
Where a name gives a salt, the structure may show the parent alone.
quantity.name: Pharmacophore torsion angle a(H4, O1, O2, N2)
Please give only the number in your answer, with no unit.

Exercise: Please state recorded Pharmacophore torsion angle a(H4, O1, O2, N2) (tested on MASP-2 CCP2-SP (Homo sapiens (Human), UniProt O00187)) of C[C@H](NC(=O)[C@H]1C[C@@H](c2ccccc2)CCN1)C(=O)NCc1cc(Cl)ccc1O.Cl [1078_8]
Solution: −122.87

Exercise: Please state recorded Pharmacophore torsion angle a(H4, O1, O2, N2) (tested on MASP-2 CCP2-SP (Homo sapiens (Human), UniProt O00187)) of C[C@H](NC(=O)[C@H]1C[C@@H](c2ccccc2)CCN1)C(=O)NCc1cc(Cl)ccc1O.Cl [1078_2]
Solution: −119.25

Exercise: Please state recorded Pharmacophore torsion angle a(H4, O1, O2, N2) (tested on MASP-2 CCP2-SP (Homo sapiens (Human), UniProt O00187)) of N=C(N)c1ccc(CNC(=O)C(CF)NC(=O)[C@H](N)CCc2ccccc2)cc1 (stereo partly drawn) [compound 1050, Dihydrochloride]
Solution: 123.45

Exercise: Please state recorded Pharmacophore torsion angle a(H4, O1, O2, N2) (tested on MASP-2 CCP2-SP (Homo sapiens (Human), UniProt O00187)) of Cc1nc(N)ccc1CNC(=O)[C@H](C)NC(=O)[C@H]1C[C@@H](c2cccc3ccccc23)CCN1.Cl.Cl [1297_4]
Solution: 142.36

Exercise: Please state recorded Pharmacophore torsion angle a(H4, O1, O2, N2) (tested on MASP-2 CCP2-SP (Homo sapiens (Human), UniProt O00187)) of C[C@H](NC(=O)[C@H]1C[C@H](c2ccccc2)CN1)C(=O)NCc1ccc2c(N)nccc2c1 [compound 1090]
Solution: −177.46

Exercise: Please state recorded Pharmacophore torsion angle a(H4, O1, O2, N2) (tested on MASP-2 CCP2-SP (Homo sapiens (Human), UniProt O00187)) of Cc1nc(N)ccc1CNC(=O)C(C)NC(=O)C1CC(c2cccc3ccccc23)CCN1.Cl.Cl (stereo not drawn) [1297_1]
Solution: 137.09

* * *

Kindly supply the reported Ligand-pharmacophore element distance, pharmacophore element C2 values for the records listed here.
Molecular target: MASP-2 CCP2-SP (Homo sapiens (Human))
Assay: MASP-2 co-crystallization, X-ray crystallography and structure analysis (H-bonds, van der Waals contacts)
Settings: Table A4-1; element C2
Description: This example illustrates the preparation of recombinant MASP-2 protein, based on UniProt O00187, human mannan-binding lectin serine protease 2. Expression constructs for human MASP-2 CCP2-SP and CCP2-SP-6HIS were generated for recombinant expression in E. coli cells. […]
Structures can show the parent of a compound that is named as a salt.
Please give only the number in your answer, with no unit.

Exercise: Reported Ligand-pharmacophore element distance, pharmacophore element C2, compound Cc1nc(N)ccc1CNC(=O)[C@H](C)NC(=O)[C@H]1C[C@@H](c2ccccc2)CCN1 [compound 1253, Dihydrochloride] : ____
Solution: 0.28

Exercise: Reported Ligand-pharmacophore element distance, pharmacophore element C2, compound C[C@H](NC(=O)C1C[C@@H](c2ccccc2)CCN1)C(=O)NCc1ccc(C(=N)N)cc1 (stereo in doubt) : ____
Solution: 0.48

Exercise: Reported Ligand-pharmacophore element distance, pharmacophore element C2, compound Cc1nc(N)ccc1CNC(=O)[C@H](C)NC(=O)[C@H]1C[C@H](Cc2cc(-c3ccccc3)cs2)CN1 [compound 1399, Dihydrochloride] : ____
Solution: 0

Exercise: Reported Ligand-pharmacophore element distance, pharmacophore element C2, compound C[C@H](NC(=O)[C@H](N)CCc1cccc(Cl)c1)C(=O)NCc1ccc(C(=N)N)cc1 : ____
Solution: 0

* * *

Molecular target: UniProt O00187
Assay: MASP-2 co-crystallization, X-ray crystallography and structure analysis (H-bonds, van der Waals contacts)
Details: Table A5-1 pharmacophore: distance between elements, S2/S1 region
Kindly supply the reported d(CA1,O4) values for the records listed here.
Please give only the number in your answer, with no unit.

Exercise: Reported d(CA1,O4), compound C[C@H](NC(=O)[C@H]1C[C@@H](c2ccccc2)CCN1)C(=O)NCc1cc(Cl)ccc1O.Cl [1078_13] : ____
Solution: 2.76

Exercise: Reported d(CA1,O4), compound C[C@H](NC(=O)[C@H]1C[C@@H](c2ccccc2)CCN1)C(=O)NCc1cc(Cl)ccc1O.Cl [1078_12] : ____
Solution: 2.74

Exercise: Reported d(CA1,O4), compound Cc1cc(Cl)cc(CNC(=O)[C@H](C)NC(=O)[C@H]2C[C@H](Cc3ccccc3)CN2)c1O : ____
Solution: 2.74

Exercise: Reported d(CA1,O4), compound C[C@H](NC(=O)[C@H]1C[C@@H](c2ccccc2)CCN1)C(=O)NCc1cc(Cl)ccc1O.Cl [1078_15] : ____
Solution: 2.74

Exercise: Reported d(CA1,O4), compound C[C@H](NC(=O)[C@H]1C[C@@H](c2ccccc2)CCN1)C(=O)NCc1cc(Cl)ccc1O.Cl [1078_14] : ____
Solution: 2.75

Exercise: Reported d(CA1,O4), compound C[C@H](NC(=O)[C@H]1C[C@@H](c2ccccc2)CCN1)C(=O)NCc1cc(Cl)ccc1O.Cl [1078_2] : ____
Solution: 2.75

Exercise: Reported d(CA1,O4), compound CC(NC(=O)C1CC(Cc2ccccc2)CN1)C(=O)NCc1cnc2c(c1)c(Cl)cn2C.Cl.Cl (stereo not shown) [1450_B] : ____
Solution: 1.74
